test_method_notes: Initial plasma concentration in Sprague-Dawley rat at 1 mg/kg, iv
Assay type: ADME, organism-based
Kindly state C0 for each of the entries shown.

// known answers, use as guide
• CC(C)(C)NS(=O)(=O)c1ccc(-c2sc(C(=O)N[C@H]3C[C@H](C(=O)O)C3)nc2CC2CCCCC2)c2ccccc12 = 4430 ng/mL
• C[C@H](NS(=O)(=O)c1ccc(-c2sc(C(=O)NCC(C)(C)O)nc2CC2CC2)c2ccccc12)C(F)(F)F = 119 ng/mL
• C[C@H](NS(=O)(=O)c1ccc(-c2sc(C(=O)NCC(C)(C)O)nc2CC2CCC2)c(C(F)F)c1)C(F)(F)F = 310 ng/mL
• CC(C)(C)NS(=O)(=O)c1ccc(-c2sc(C(=O)N[C@H]3C[C@H](C(=O)O)C3)nc2CC2CCCCC2)c(Cl)c1 = 2300 ng/mL

Form: compound = C[C@H](NS(=O)(=O)c1ccc(-c2sc(C(=O)NC3CCS(=O)(=O)CC3)nc2CC2CC2)c2ccccc12)C(F)(F)F ; C0 = 470 ng/mL

All values here come from ChEMBL document CHEMBL4118122.
